- System: Staphylococcus aureus
- ASSAY COMMENT: Inhibitory effect against methicillin resistant Staphylococcus aureus (A 27218), expressed as minimum inhibitory concentration
- Format: functional
Entries annotated with measured MIC
Reply with just the number (in µg/mL).

Query: What value of measured MIC is listed for CC(=O)Oc1ccc(C(=O)OCC2=C(C(=O)O)N3C(=O)[C@@H](NC(=O)CSc4cc(Cl)ccc4Cl)C3SC2)cc1 (stereo not given in full) ?
Reply: 0.06

Query: What value of measured MIC is listed for CC(=O)Nc1ccc(C(=O)OCC2=C(C(=O)O)N3C(=O)[C@@H](NC(=O)CSc4cc(Cl)ccc4Cl)C3SC2)cc1 (stereo not given in full) ?
Reply: 0.5

Query: What value of measured MIC is listed for C[n+]1ccc(C(=O)OCC2=C(C(=O)[O-])N3C(=O)[C@@H](NC(=O)CSc4cc(Cl)ccc4Cl)C3SC2)cc1 (stereo not given in full) ?
Reply: 2

Query: What value of measured MIC is listed for O=C(CSc1cc(Cl)ccc1Cl)N[C@@H]1C(=O)N2C(C(=O)O)=C(COC(=O)c3cccnc3)CSC12 (stereo not given in full) ?
Reply: 2

Query: What value of measured MIC is listed for O=C(CSc1cc(Cl)ccc1Cl)N[C@@H]1C(=O)N2C(C(=O)O)=C(COC(=O)c3ccc([N+](=O)[O-])cc3)CSC12 (stereo not given in full) ?
Reply: 0.25

Sourced from ChEMBL document CHEMBL1149933
